Answer each item with its documented IC50.
- STUDY SYSTEM: Carnitine O-palmitoyltransferase 1, muscle isoform (Homo sapiens)
- Sequence (Q92523 whole entry): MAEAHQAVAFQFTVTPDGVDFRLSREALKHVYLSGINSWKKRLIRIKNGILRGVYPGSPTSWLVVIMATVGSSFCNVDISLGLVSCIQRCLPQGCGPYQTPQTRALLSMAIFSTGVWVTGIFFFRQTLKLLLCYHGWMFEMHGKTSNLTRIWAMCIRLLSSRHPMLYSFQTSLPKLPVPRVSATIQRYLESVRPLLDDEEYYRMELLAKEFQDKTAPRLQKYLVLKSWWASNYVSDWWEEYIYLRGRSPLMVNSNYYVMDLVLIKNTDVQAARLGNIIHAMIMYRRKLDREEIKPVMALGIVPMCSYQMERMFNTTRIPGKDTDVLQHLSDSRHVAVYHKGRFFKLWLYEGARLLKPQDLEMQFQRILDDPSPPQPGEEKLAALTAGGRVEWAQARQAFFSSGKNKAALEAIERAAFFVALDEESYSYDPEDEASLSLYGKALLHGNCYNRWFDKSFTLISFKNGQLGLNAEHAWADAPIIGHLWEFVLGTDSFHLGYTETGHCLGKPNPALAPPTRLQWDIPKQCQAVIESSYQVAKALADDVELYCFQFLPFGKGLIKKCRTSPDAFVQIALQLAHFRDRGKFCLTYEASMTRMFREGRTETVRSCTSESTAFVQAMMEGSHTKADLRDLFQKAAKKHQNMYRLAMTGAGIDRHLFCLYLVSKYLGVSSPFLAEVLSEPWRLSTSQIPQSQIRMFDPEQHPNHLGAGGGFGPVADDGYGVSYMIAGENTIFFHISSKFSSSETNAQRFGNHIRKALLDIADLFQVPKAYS
- ASSAY NAME: SUPPLEMENTARY: Inhibition of Carnitine palmitoyltransferase 1, muscle isoform
- Parameters: species or system Muscle tissue
Numbers only, in µM.

Some solved cases for reference:
COMPOUND	IC50 / µM
CCN(c1cc(C(=O)Nc2ncc(CC(=O)O)s2)cc2c1OCO2)S(=O)(=O)c1cc(Cl)ccc1OC	0.62
COc1ccc(Cl)cc1CN1C(=O)OC(C)(C)c2ccc(C(=O)Nc3ccc(CC(=O)O)cc3)cc21	2.33
COCCN(c1cc(C(=O)Nc2ccn(CC(=O)O)n2)cc2c1OCO2)S(=O)(=O)c1cc(Cl)ccc1OC	5.32
COc1ccc(Cl)cc1S(=O)(=O)N1CCOc2c(Cl)cc(C(=O)Nc3ncc(CC(=O)O)s3)cc21	0.685

// each listed compound needs a value for IC50
1. COc1ccc(Cl)cc1S(=O)(=O)N1COc2ccc(C(=O)Nc3nc(CC(=O)O)cs3)cc21
2. COc1ccc(Cl)cc1S(=O)(=O)N1COc2c(F)cc(C(=O)Nc3ccc(CC(=O)O)cc3)cc21
3. Cc1cc(C(=O)Nc2ccc(C(=O)O)cc2)cc(S(=O)(=O)Nc2cccc(C(F)(F)F)c2)c1C
4. COc1ccc(Cl)cc1S(=O)(=O)N1CCOc2ccc(C(=O)Nc3ccc(CC(=O)O)cc3)cc21
5. COc1ccc(Cl)cc1S(=O)(=O)N1CCOc2ccc(C(=O)Nc3ccc(C(=O)O)c(F)c3)cc21
6. COc1ccc(Cl)cc1S(=O)(=O)N(C)c1cc(C(=O)Nc2ccc(CC(=O)O)cc2)cc2c1OCO2

[out]
[0.661, 0.614, 30.2, 0.827, 1.8, 0.857]

// each listed compound needs a value for IC50
1. Cc1cc(C)cc(S(=O)(=O)n2ccc3ccc(C(=O)Nc4ccc(CC(=O)O)cc4)cc32)c1
2. COc1ccc(Cl)cc1CN1C(=O)COc2ccc(C(=O)Nc3nc(CC(=O)O)cs3)cc21
3. COc1ccc(Cl)cc1S(=O)(=O)N1CC[S+]([O-])c2ccc(C(=O)Nc3ccc(C(=O)O)cc3)cc21 (configuration not stated)
4. COc1ccc(Cl)cc1Cc1cn(C)c2ccc(C(=O)Nc3ccc(CC(=O)O)cc3)cc12
5. CCOc1ccc(C(=O)Nc2ccc(C(=O)O)c(F)c2)cc1N(CCS(=O)O)S(=O)(=O)c1cc(Cl)ccc1OC

[out]
1. 0.95
2. 32.4
3. 17.2
4. 2.47
5. 27.7

###

- STUDY SYSTEM: Carnitine O-palmitoyltransferase 1, liver isoform (Rattus norvegicus)
- Sequence (P32198 whole entry): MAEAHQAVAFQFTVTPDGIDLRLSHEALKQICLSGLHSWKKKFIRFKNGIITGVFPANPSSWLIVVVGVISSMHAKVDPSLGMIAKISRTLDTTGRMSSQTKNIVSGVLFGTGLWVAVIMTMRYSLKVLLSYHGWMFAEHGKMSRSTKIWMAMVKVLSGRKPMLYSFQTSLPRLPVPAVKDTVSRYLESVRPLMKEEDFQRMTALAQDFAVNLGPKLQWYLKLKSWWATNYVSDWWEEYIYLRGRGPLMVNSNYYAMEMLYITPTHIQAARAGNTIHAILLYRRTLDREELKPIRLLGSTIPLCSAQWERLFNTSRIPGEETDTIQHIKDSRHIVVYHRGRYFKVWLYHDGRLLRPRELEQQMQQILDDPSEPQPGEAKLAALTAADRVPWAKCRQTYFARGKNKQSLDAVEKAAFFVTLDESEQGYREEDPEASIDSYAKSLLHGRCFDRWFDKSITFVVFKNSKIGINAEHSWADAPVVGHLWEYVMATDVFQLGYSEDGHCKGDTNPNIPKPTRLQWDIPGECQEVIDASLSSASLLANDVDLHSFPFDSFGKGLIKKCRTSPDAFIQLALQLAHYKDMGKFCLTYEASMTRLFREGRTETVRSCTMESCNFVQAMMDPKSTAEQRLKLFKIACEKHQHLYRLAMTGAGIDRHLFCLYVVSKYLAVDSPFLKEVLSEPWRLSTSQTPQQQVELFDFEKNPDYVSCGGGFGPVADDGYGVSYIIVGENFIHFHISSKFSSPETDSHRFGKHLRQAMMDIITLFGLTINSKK
- ASSAY NAME: SUPPLEMENTARY: Inhibition of Carnitine palmitoyltransferase 1, liver isoform
PROPERTY LABEL: IC50 (nM)
Give bare numbers, in nM.

Some solved cases for reference:
CPD SMILES	RECORDED VALUE
COc1ccc(Cl)cc1S(=O)(=O)N(C)c1cc(C(=O)Nc2nc(CC(=O)O)cs2)cc2c1OCO2	62.5
COc1ccc(C)cc1S(=O)(=O)N1CCc2ccc(C(=O)Nc3ccc(CC(=O)O)cc3)cc21	174
Cc1cc(-c2nc([C@H]3CCCCN3C(=O)COc3ccccc3)no2)n(C)n1	330
CN1CCN(C(=O)COc2ccccc2)[C@@H](c2nc(-c3cccc(C(F)(F)F)c3)n[nH]2)C1	54.7
COc1ccc(Cl)cc1Cc1cn(C)c2ccc(C(=O)Nc3ccc(C(=O)O)cc3)cc12	102

// each listed molecule needs a value for IC50
1. COc1ccc(-c2noc([C@H]3CCCCN3C(=O)C#Cc3ccccc3)n2)cc1
2. NC(=O)c1cncc(-c2noc([C@H]3COCCN3C(=O)COc3ccccc3)n2)c1
3. COc1ccc(C)cc1S(=O)(=O)N1CCCc2ccc(C(=O)Nc3ccc(C(=O)O)c(F)c3)cc21
4. CCN(c1cc(C(=O)Nc2ccc(CC(=O)O)cc2)cc2c1OCO2)S(=O)(=O)c1cc(Cl)ccc1OC

[out]
1. 500
2. 1250
3. 90.9
4. 350

// each listed molecule needs a value for IC50
1. Cc1cc(C)cc(S(=O)(=O)N2CCOc3ccc(C(=O)Nc4ccc(C(=O)O)c(F)c4)cc32)c1
2. COc1ccc(Cl)cc1S(=O)(=O)N1CCOc2c(F)cc(C(=O)Nc3ccc(CC(=O)O)cc3)cc21
3. COc1ccc(Cl)cc1S(=O)(=O)N1CCOc2c(F)cc(C(=O)Nc3ccc(C(=O)O)c(F)c3)cc21

[out]
[70.4, 84.7, 56.7]

// each listed molecule needs a value for IC50
1. O=C(COc1ccccc1)N1CCCC[C@@H]1c1noc(-c2cc[nH]n2)n1
2. Cc1cc(-c2n[nH]c([C@H]3CCCCN3C(=O)COc3ccccc3)n2)n(C)n1
3. COc1ccc(Cl)cc1S(=O)(=O)c1cn(CC(=O)O)c2ccc(C(=O)Nc3ccccc3)cc12
4. O=C(COc1ccccc1)N1CCCC[C@@H]1c1nc(-c2ccc3[nH]cnc3c2)no1
5. CCOc1ccc(C(=O)Nc2ccc(CC(=O)O)cc2)cc1N(CCS(=O)O)S(=O)(=O)c1cc(Cl)ccc1OC
6. O=C1NCc2ccc(-c3n[nH]c([C@H]4CCCCN4C(=O)COc4ccccc4)n3)cc2N1
7. O=C(COc1ccccc1)N1CCCC[C@@H]1c1nc(-c2ccccn2)cs1

[out]
225
555
7.2
106
408
546
128

###

- ASSAY NAME: SUPPLEMENTARY: PAMPA permeability assay
- Type: physicochemical
- PARTICULARS: read-out: Permeability
Given measured Papp, output rule met if it is greater than or equal to 9 nm/s and rule not met if not.

Consider the following illustrative entries.
COMPOUND	DISCRETE LABEL
CN(CCOc1ccc(CC2SC(=O)NC2=O)cc1)c1ccccn1 (centres undefined)	rule met
O=C1Cc2ccc(-c3n[nH]c([C@H]4CCCCN4C(=O)COc4ccccc4)n3)cc2N1	rule met
CC(=O)Nc1ccc(F)c(-c2n[nH]c([C@H]3CCCCN3C(=O)COc3ccccc3)n2)c1	rule met
COc1ccc(Cl)cc1S(=O)(=O)Nc1cc(C(=O)Nc2ccc(C(=O)O)cc2)cn(C)c1=O	rule not met
O=C(COc1ccccc1)N1CCCCC1c1ncc(-c2cccc([N+](=O)[O-])c2)o1 (centres undefined)	rule not met
O=C([C@H]1CCCCN1C(=O)COc1ccccc1)N1Cc2ccc(O[C@@H]3CCOC3)cc2C1	rule met
COc1ccc(Cl)cc1S(=O)(=O)N1COc2c(C)cc(C(=O)Nc3ccc(CC(=O)O)cc3)cc21	rule met
O=C(O)c1ccc(NC(=O)c2ccc3c(c2)N(S(=O)(=O)c2cccc(Cl)c2)CCS3(=O)=O)cc1	rule not met

Turning now to a further compound:
[in] In plain terms: is recorded Papp at least 9 nm/s for COc1ccc(Cl)cc1CN1C(=O)OC(C)(C)c2ccc(C(=O)Nc3ccc(C(=O)O)c(Cl)c3)cc21 ?
[out] rule met
